Molecular target: DAPK1 (DAPK1A) (Homo sapiens)
Construct: purchased in-house DSF kinase panel (SGC-style construct names; the trailing letter is the construct ID)
Sequence (P53355 1-285): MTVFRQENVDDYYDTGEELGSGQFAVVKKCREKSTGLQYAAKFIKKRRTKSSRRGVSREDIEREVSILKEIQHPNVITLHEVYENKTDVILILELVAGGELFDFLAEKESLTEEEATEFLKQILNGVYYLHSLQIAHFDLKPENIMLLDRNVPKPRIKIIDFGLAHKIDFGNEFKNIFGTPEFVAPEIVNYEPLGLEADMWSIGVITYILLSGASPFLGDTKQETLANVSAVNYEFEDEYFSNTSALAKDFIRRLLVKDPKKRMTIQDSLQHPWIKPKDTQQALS
Assay: DSF Tm panel
Format: binding
Conditions: 10 μM compound
# note: exactly 0.3 °C is not below, so it is Criterion not met; use Criterion met for ΔTm at 10 µM strictly under it

Data request: Given the entry O=C(NCc1ccc(Cl)cc1)Nc1ccc2cc1OCCOCCNc1ccn3ncc-2c3n1 [compound 19] , would its reported ΔTm at 10 µM be below 0.3 °C?
Data returned: Criterion met

Data request: State whether 0.3 °C exceeds ΔTm at 10 µM recorded for Cc1cc(Br)ccc1CNC(=O)Nc1ccc2cc1OCCOCCNc1ccn3ncc-2c3n1 [compound 24] .
Data returned: Criterion met

Data request: Lab note: confirm whether the reported ΔTm at 10 µM for this compound is below 0.3 °C, equality not counting. compound: CN1CCN(C(=O)Nc2ccc3cc2OCCOCCNc2ccn4ncc-3c4n2)CC1 [compound 35]
Data returned: Criterion not met

Data request: Identify whether the compound O=C(NCc1ccccc1)Nc1ccc2cc1OCCOCCNc1ccn3ncc-2c3n1 [compound 16] records ΔTm at 10 µM below 0.3 °C.
Data returned: Criterion not met

Data request: Does this compound meet the criterion ΔTm at 10 µM < 0.3 °C? Cc1ccc(F)cc1CNC(=O)Nc1ccc2cc1OCCOCCNc1ccn3ncc-2c3n1 [compound 26]
Data returned: Criterion met

Data request: Does this compound meet the criterion ΔTm at 10 µM < 0.3 °C? COc1cccc(CNC(=O)Nc2ccc3cc2OCCOCCNc2ccn4ncc-3c4n2)c1 [compound 30]
Data returned: Criterion met

Data request: # check: ΔTm at 10 µM < 0.3 °C for O=C(NCc1ccc(C(F)(F)F)cc1)Nc1ccc2cc1OCCOCCNc1ccn3ncc-2c3n1 [compound 28]
Data returned: Criterion not met

Proceed to the following item.
Data request: Please indicate whether the reported ΔTm at 10 µM of O=C(NCc1ccccc1Cl)Nc1ccc2cc1OCCOCCNc1ccn3ncc-2c3n1 [compound 17] is strictly below 0.3 °C.
Data returned: Criterion met

---

Target: AAK1 (AAK1A) (Homo sapiens, UniProt Q2M2I8)
Construct: purchased in-house DSF kinase panel (SGC-style construct names; the trailing letter is the construct ID)
Sequence (Q2M2I8 27-365): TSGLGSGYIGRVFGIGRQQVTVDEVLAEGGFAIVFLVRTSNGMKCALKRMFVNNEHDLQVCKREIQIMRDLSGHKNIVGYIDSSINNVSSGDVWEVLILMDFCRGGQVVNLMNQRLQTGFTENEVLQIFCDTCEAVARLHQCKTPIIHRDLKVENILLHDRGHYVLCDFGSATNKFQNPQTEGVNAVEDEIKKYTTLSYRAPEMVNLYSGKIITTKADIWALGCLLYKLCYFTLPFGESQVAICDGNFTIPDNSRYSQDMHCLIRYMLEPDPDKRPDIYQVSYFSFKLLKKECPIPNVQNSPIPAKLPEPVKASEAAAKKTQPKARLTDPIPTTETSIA
Experiment: DSF Tm panel
Format: binding
Conditions: 10 μM compound
READOUT NAME: ΔTm at 10 µM
Your reply should be a number followed by the unit it is expressed in.

Known ΔTm at 10 µM results, listed for orientation:
Data request: Look up ΔTm at 10 µM: O=C(NCc1ccccc1Cl)Nc1ccc2cc1OCCOCCNc1ccn3ncc-2c3n1 [compound 17]
Data returned: 7 °C

Data request: Value lookup for ΔTm at 10 µM; key = COc1cc(CNC(=O)Nc2ccc3cc2OCCOCCNc2ccn4ncc-3c4n2)ccc1F [compound 33]
Data returned: 6.4 °C

Data request: May I ask what ΔTm at 10 µM has been recorded for COc1cccc(CNC(=O)Nc2ccc3cc2OCCOCCNc2ccn4ncc-3c4n2)c1 [compound 30] ?
Data returned: 6.3 °C

Data request: Query: ΔTm at 10 µM; subject: CN1CCN(C(=O)Nc2ccc3cc2OCCOCCNc2ccn4ncc-3c4n2)CC1 [compound 35]
Data returned: 7.7 °C

Data request: What ΔTm at 10 µM value was documented for this compound, O=C(NCc1ccccc1C(F)(F)F)Nc1ccc2cc1OCCOCCNc1ccn3ncc-2c3n1 [compound 27] ?
Data returned: 3.9 °C

Data request: Give its ΔTm at 10 µM value. Item: O=C(NCc1ccc(Cl)cc1F)Nc1ccc2cc1OCCOCCNc1ccn3ncc-2c3n1 [compound 21]
Data returned: 7.1 °C

Others:
Data request: # query: ΔTm at 10 µM of entry Cc1ccc(F)cc1CNC(=O)Nc1ccc2cc1OCCOCCNc1ccn3ncc-2c3n1 [compound 26]
Data returned: 5 °C

Data request: ΔTm at 10 µM lookup needed for COc1ccc(CNC(=O)Nc2ccc3cc2OCCOCCNc2ccn4ncc-3c4n2)cc1F [compound 32] , thanks.
Data returned: 6.3 °C

Data request: Which ΔTm at 10 µM value is on record for O=C(NCc1ccccc1)Nc1ccc2cc1OCCOCCNc1ccn3ncc-2c3n1 [compound 16] ?
Data returned: 8.3 °C

Data request: Can you look up the measured ΔTm at 10 µM of C[C@H](NC(=O)Nc1ccc2cc1OCCOCCNc1ccn3ncc-2c3n1)c1ccccc1 [compound 34] for me?
Data returned: 5.9 °C

Data request: Fill in: ΔTm at 10 µM of COc1ccccc1CNC(=O)Nc1ccc2cc1OCCOCCNc1ccn3ncc-2c3n1 [compound 29] is ___
Data returned: 5.5 °C
